Sodium-dependent noradrenaline transporter (Homo sapiens, UniProt P23975): reported log10(AC50) for various compounds. Note: assay procedure not described here.
Sequence (P23975 whole entry): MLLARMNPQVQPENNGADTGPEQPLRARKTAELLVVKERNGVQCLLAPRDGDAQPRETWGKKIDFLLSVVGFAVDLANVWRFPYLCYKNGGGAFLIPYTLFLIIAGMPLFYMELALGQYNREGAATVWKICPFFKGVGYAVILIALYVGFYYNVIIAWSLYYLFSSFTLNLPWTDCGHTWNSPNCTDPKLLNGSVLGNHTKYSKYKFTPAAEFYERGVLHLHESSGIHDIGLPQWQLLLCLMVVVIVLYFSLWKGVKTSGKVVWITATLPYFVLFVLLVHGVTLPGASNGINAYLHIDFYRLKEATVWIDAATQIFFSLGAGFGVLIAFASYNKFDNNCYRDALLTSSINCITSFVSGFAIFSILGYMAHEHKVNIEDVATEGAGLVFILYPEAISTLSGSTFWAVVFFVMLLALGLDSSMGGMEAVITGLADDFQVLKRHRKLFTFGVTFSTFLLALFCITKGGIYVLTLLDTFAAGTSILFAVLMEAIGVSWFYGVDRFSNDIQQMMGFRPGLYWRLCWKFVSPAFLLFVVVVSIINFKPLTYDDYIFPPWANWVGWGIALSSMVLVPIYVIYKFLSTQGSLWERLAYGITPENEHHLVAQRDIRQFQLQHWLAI
Observation Type: log10(AC50) (log10 of the value in µM)

{"columns": ["Compound", "Measurement"],
 "data": [
  ["CN(C)CCN1C(=O)c2ccccc2N(C)c2ccccc21 [DIBENZEPIN]", -0.67],
  ["COc1ccccc1N1CCN(CC(O)COc2cccc3ccccc23)CC1 (stereo not given)", 0.78],
  ["Clc1ccc(C(OCCN2CCCCC2)c2ccccc2)cc1 (stereo not given)", 0.81],
  ["CC(C)(C)CC(C)(C)c1ccc(O)c(Cc2ccc(Cl)cc2Cl)c1", 0.53],
  ["C=CCN1C[C@H](C(=O)N(CCCN(C)C)C(=O)NCC)C[C@@H]2c3cccc4[nH]cc(c34)C[C@H]21", 1.47]
]}

* * *

# Experimental System: Adenosine receptor A3 (Homo sapiens, UniProt P0DMS8); note: assay procedure not described here
# Sequence (P0DMS8 whole entry): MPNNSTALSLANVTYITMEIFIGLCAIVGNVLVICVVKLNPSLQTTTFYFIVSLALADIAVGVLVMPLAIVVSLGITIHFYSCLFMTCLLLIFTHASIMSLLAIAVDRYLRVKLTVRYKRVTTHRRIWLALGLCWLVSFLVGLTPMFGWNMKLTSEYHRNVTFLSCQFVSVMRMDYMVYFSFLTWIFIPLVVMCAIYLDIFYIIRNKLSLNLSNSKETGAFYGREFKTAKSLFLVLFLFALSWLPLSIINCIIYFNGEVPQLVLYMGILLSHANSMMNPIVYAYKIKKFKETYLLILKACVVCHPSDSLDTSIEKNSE
# Lookup of reported AC50 keyed by entry

{"columns": ["Compound", "AC50"],
 "data": [
  ["O=C(Nc1ccc(Cl)cc1)Nc1ccc(Cl)c(Cl)c1 [TRICLOCARBAN]", "2.08 µM"],
  ["C=CCN1C[C@H](C(=O)N(CCCN(C)C)C(=O)NCC)C[C@@H]2c3cccc4[nH]cc(c34)C[C@H]21 [CABERGOLINE]", "> 30 µM"],
  ["CC[C@H]1CN2CC[C@H]1C[C@H]2[C@H](O)c1ccnc2ccc(OC)cc12 [HYDROQUININE]", "> 30 µM"],
  ["CCCCCCOc1nsnc1C1=CCCN(C)C1 [XANOMELINE]", "> 30 µM"],
  ["C=CCc1ccccc1OCC(O)CNC(C)C (configuration not stated) [ALPRENOLOL]", "> 0.3 µM"],
  ["CO[C@H]1C[C@@H]2CC[C@@H](C)[C@@](O)(O2)C(=O)C(=O)N2CCCC[C@H]2C(=O)O[C@H]([C@H](C)C[C@@H]2CC[C@@H](O)[C@H](OC)C2)CC(=O)[C@H](C)/C=C(\\C)[C@@H](O)[C@@H](OC)C(=O)[C@H](C)C[C@H](C)/C=C/C=C/C=C/1C [SIROLIMUS]", "26.4 µM"],
  ["Clc1ccc(C(OCCN2CCCCC2)c2ccccc2)cc1 (configuration not stated) [CLOPERASTINE]", "> 30 µM"],
  ["CN(C)CC(c1ccc(O)cc1)C1(O)CCCCC1 (configuration not stated) [DESVENLAFAXINE]", "> 30 µM"],
  ["C[N+]1(CCCCC[N+]2(C)CCCC2)CCCC1 [PENTOLINIUM]", "> 30 µM"],
  ["O=[N+]([O-])c1cn2c(n1)OC[C@@H](OCc1ccc(OC(F)(F)F)cc1)C2 [PRETOMANID]", "> 30 µM"],
  ["CC(C)C[C@H]1C(=O)N2CCC[C@H]2[C@]2(O)O[C@](NC(=O)[C@@H]3C=C4c5cccc6[nH]c(Br)c(c56)C[C@H]4N(C)C3)(C(C)C)C(=O)N12 [BROMOCRIPTINE]", "1.92 µM"],
  ["CC(=O)Oc1c(C)c(C)c2c(c1C)CC[C@@](C)(CCC[C@H](C)CCC[C@H](C)CCCC(C)C)O2", "> 30 µM"],
  ["CC(C)(C)C(=O)OCOC(=O)[C@@H]1N2C(=O)[C@@H](NC(=O)[C@H](N)c3ccccc3)[C@H]2SC1(C)C [PIVAMPICILLIN]", "> 30 µM"],
  ["CCOC(=O)[C@H](CCc1ccccc1)N[C@@H](C)C(=O)N1[C@H](C(=O)O)C[C@H]2CCCC[C@@H]21 [TRANDOLAPRIL]", "> 30 µM"],
  ["CC(=O)OCC(=O)[C@@]1(O)CC[C@H]2[C@@H]3CCC4=CC(=O)C=C[C@]4(C)[C@@]3(Cl)[C@@H](Cl)C[C@@]21C [DICHLORISONE ACETATE]", "> 30 µM"],
  ["O=C(OCC(O)CO)c1ccccc1Nc1ccnc2cc(Cl)ccc12 (configuration not stated) [GLAFENINE]", "1.4 µM"],
  ["Cc1cccc(Nc2ccccc2C(=O)O)c1C [MEFENAMIC ACID]", "> 30 µM"],
  ["CC(=O)c1ccc2c(c1)N(CCCN(C)C)c1ccccc1S2 [ACEPROMAZINE]", "> 30 µM"],
  ["CC(C)(C)N1CCC(c2ccccc2)(c2ccccc2)CC1 [BUDIPINE]", "> 30 µM"],
  ["C[C@]12CC[C@@H]3c4ccc(O)cc4CC[C@H]3[C@@H]1C[C@@H](O)[C@@H]2O [ESTRIOL]", "> 30 µM"],
  ["O=C(Oc1ccc2c(c1)CCCN2C(=O)C(Cl)Cl)c1ccco1 [QUINFAMIDE]", "25.6 µM"],
  ["Nc1ccncc1N [AMIFAMPRIDINE]", "> 30 µM"]
]}

Source of measurements: ChEMBL document CHEMBL5291721
